Each entry below carries its reported Cytotoxicity EC50, K562 MPL CALRdel52 cells.
Molecular target: CALRdel52 (mutant calreticulin, 52 base pair deletion, Type 1) expressed with MPL on engineered cancer cells (UniProt P27797)
Sequence (P27797 other isoform, or with tags, fused parts or gaps mutant limits assumed): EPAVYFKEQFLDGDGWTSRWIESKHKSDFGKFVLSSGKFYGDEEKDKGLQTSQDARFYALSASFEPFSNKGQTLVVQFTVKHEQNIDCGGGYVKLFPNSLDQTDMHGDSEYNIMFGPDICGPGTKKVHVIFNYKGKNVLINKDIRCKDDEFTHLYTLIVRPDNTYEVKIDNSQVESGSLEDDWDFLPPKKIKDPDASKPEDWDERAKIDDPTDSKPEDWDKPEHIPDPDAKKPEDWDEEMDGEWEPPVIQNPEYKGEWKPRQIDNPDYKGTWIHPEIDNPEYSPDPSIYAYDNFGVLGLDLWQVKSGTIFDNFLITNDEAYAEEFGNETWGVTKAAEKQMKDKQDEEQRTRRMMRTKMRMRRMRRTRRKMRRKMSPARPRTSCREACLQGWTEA
Experiment: cell-based or functional assay
OUTCOME_MEASURE: Cytotoxicity EC50, K562 MPL CALRdel52 cells (µg/mL)

INSERT INTO assay_data (binder, endpoint_value) VALUES
  ('CALRB74 (MP1001 Fab x CD3W245-LH-scFv, medium affinity) (bispecific antibody, part only; not given: CD3 scFv arm and IgG1 constant regions, V domains shown, not shown: another chain or arm of the molecule; a dimerising Fc or GST; small tags and cut ends) VL: YVMMTQTPSSVSAAVGGTVTINCQASQSLYNNNNLAWFQQKPGQPPKRLIYPASTLASGVSSRFKGSGSGTQFTLTISDVQSDDAATYFCLGEFSCSSADCYAFGGGTEVVVK VH: QEQLKESGGRLVTPGTPLTLTCAVSGFSLDIYGMSWVRQAPGKGLEWIGIIYIEGITYYANWAKGRFTISKTSSTTLELKMTSLTTEDTAMYFCVAGVGRIWGPGTLVTVSS', 0.0521),
  ('CALRB77 (MP1010 Fab x CD3W245-LH-scFv, medium affinity) (bispecific antibody, part only; not given: anti-CD3 scFv arm, constant regions, V domains shown, not shown: another chain or arm of the molecule; a dimerising Fc or GST; small tags and cut ends) VL: DPMLTQTPSSVSAAVGGTVTIGCQSSQSVYDKNWLSWYQQKPGQPPSRLIYDASKLESGVPSRFSGSGSGTQFTLTISGVQSDDVATYYCAGGFTGNVYAFGGGTEVVVK VH: QSVEESGGRLVTPGTPLTLTCTVSGIDLSNNAISWVRQAPGKGLEYIGVIGNTGDTYYASWAKGRFTISKTSSTTVDLKMTSLTTEDTATYFCVRGPPSYSNSVKNIWGPGTLVTISS', 0.195),
  ('CALRB117 (MP1010 Fab x CD3W245-HL-scFv, high affinity) (bispecific antibody, part only; not given: anti-CD3 scFv arm, constant regions, V domains shown, not shown: another chain or arm of the molecule; a dimerising Fc or GST; small tags and cut ends) VH: QSVEESGGRLVTPGTPLTLTCTVSGIDLSNNAISWVRQAPGKGLEYIGVIGNTGDTYYASWAKGRFTISKTSSTTVDLKMTSLTTEDTATYFCVRGPPSYSNSVKNIWGPGTLVTISS VL: DPMLTQTPSSVSAAVGGTVTIGCQSSQSVYDKNWLSWYQQKPGQPPSRLIYDASKLESGVPSRFSGSGSGTQFTLTISGVQSDDVATYYCAGGFTGNVYAFGGGTEVVVK', 0.0403);
